- TEST_TARGET: T1, human OX40 expressed on the cell surface (human, UniProt P43489 29-277)
- T1 sequence (looked up): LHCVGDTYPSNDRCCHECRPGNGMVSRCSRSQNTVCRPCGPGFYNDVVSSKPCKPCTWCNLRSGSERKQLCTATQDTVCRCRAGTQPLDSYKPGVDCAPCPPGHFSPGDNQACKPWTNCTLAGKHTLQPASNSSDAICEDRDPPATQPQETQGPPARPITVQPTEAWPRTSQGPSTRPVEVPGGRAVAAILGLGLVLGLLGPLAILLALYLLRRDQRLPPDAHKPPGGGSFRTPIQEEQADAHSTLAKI
- ASSAY_EXPLANATION: cell-based or functional assay
Form field: maximum IFNγ concentration (one value per entry).
Give the quantity in ng/mL, number only.

# input Query: maximum IFNγ concentration; subject: Hu38E11-v1 (antibody, human IgG1, V domains shown, also called Hu38E11-vl) VH: QVQLVQSGAEVKKPGASVKVSCKASGYTFTSYWVDWVRQAPGQGLEWIGNIYPSDSETHYNQKFKDRVTMTVDTSTSTVYMELSSLRSEDTAVYYCARSYGYYGTWFAYWGQGTLVTVSS VL: DIVMTQSPDSLAVSLGERATINCRASESVDSSGNSFMHWYQQKPGQPPKLLIYRASNLESGIPDRFSGSGSGTDFTLTISSVQAEDVAVYYCQQSNEDPWTFGGGTKLEIK
# output 21600

# input Would you kindly repeat that for Hu38E11-v3 (antibody, human IgG1, V domains shown) VH: QVQLVQSGAEVKKPGASVKVSCKASGYTFTSYWVDWVRQAPGQGLEWMGNIYPSDSETHYNQKFKDRVTMTRDTSTSTVYMELSSLRSEDTAVYYCARSYGYYGTWFAYWGQGTLVTVSS VL: DIVMTQSPDSLAVSLGERATINCRASESVDSSGNSFMHWYQQKPGQPPKLLIYRASNLESGIPDRFSGSGSGTDFTLTISSVQAEDVAVYYCQQSNEDPWTFGGGTKLEIK ?
# output 22500

# input Would you kindly repeat that for Hu38E11-v2 (antibody, human IgG1, V domains shown) VH: QVQLVQSGAEVKKPGASVKVSCKASGYTFTSYWVDWVRQAPGQGLEWIGNIYPSDSETHYNQKFKDRVTMTVDTSTSTAYMELSSLRSEDSAVYYCARSYGYYGTWFAYWGQGTLVTVSS VL: DIVMTQSPDSLAVSLGERATINCRASESVDSSGNSFMHWYQQKPGQPPKLLIYRASNLESGVPDRFSGSGSGTDFTLTISSLQAEDVAVYYCQQSNEDPWTFGGGTKLEIK ?
# output 22500

New cases:
# input Query: maximum IFNγ concentration; subject: OX40mAb24 (antibody, V domains shown) VH: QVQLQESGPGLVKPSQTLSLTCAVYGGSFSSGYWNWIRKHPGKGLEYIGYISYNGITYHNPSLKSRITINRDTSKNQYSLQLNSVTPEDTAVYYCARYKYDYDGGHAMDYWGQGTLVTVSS VL: DIQMTQSPSSLSASVGDRVTITCRASQDISNYLNWYQQKPGKAPKLLIYYTSKLHSGVPSRFSGSGSGTDYTLTISSLQPEDFATYYCQQGSALPWTFGQGTKVEIKR
# output 27400

# input Would you kindly repeat that for Hu38E11-v4 (antibody, human IgG1, V domains shown) VH: QVQLVQSGAEVKKPGASVKVSCKASGYTFTSYWVDWVRQAPGQGLEWIGNIYPSDSETHYNQKFKDRVTMTVDTSTSTAYMELSSLRSEDSAVYYCARSYGYYGTWFAYWGQGTLVTVSS VL: DIVMTQSPDSLAVSLGERATINCRASESVDSSGNSFMHWYQQKPGQPPKLLIYRASNLESGIPDRFSGSGSGTDFTLTISSLQAEDVAVYYCQQSNEDPWTFGGGTKLEIK ?
# output 21700
